Test system: KP-N-YN (Neuroblastoma)
measurement protocol: combination Emax (second highest fraction inhibited in the dose matrix, 72 h); higher = more inhibition; extreme values may be limits of the assay
Quick rule for you: combination Emax at 0.3 or higher means label 1, lower means label 0.

[
  {
    "compound": "CC1(C)CCC(CN2CCN(c3ccc(C(=O)NS(=O)(=O)c4ccc(NCC5CCOCC5)c([N+](=O)[O-])c4)c(Oc4cnc5[nH]ccc5c4)c3)CC2)=C(c2ccc(Cl)cc2)C1 [Venetoclax] + CCN(CCO)CCCOc1ccc2c(Nc3cc(CC(=O)Nc4cccc(F)c4)[nH]n3)ncnc2c1 [AZD2811] (first compound max 1 µM, 7x7, partner max 1 µM)",
    "classification": "label 1"
  },
  {
    "compound": "Cc1c2c(nn1C)CSCc1cc(n(C)n1)CSc1cc(c3ccccc3c1)OCCCc1c(C(=O)O)n(C)c3c-2c(Cl)ccc13 [AZD5991] + Cc1cc2ncnn2cc1Nc1ncc2c(n1)n(C1CCOCC1)c(=O)n2C [AZD7648] (first compound max 1 µM, 7x7, partner max 10 µM)",
    "classification": "label 0"
  },
  {
    "compound": "COc1nnc2ccc(N3CCC(c4ccc(OCCN5CCN(C)C(=O)[C@H]5C)cc4)CC3)nn12 [AZD5153] + C=CCn1c(=O)c2cnc(Nc3ccc(N4CCN(C)CC4)cc3)nc2n1-c1cccc(C(C)(C)O)n1 [AZD1775] (first compound max 1 µM, partner max 1 µM)",
    "classification": "label 1"
  },
  {
    "compound": "CC(=O)c1c(C)c2cnc(Nc3ccc(N4CCNCC4)cn3)nc2n(C2CCCC2)c1=O [Palbociclib] + Cc1c2c(nn1C)CSCc1cc(n(C)n1)CSc1cc(c3ccccc3c1)OCCCc1c(C(=O)O)n(C)c3c-2c(Cl)ccc13 [AZD5991] (first compound max 10 µM, 7x7, partner max 1 µM)",
    "classification": "label 1"
  },
  {
    "compound": "CC1(C)CCC(CN2CCN(c3ccc(C(=O)NS(=O)(=O)c4ccc(NCC5CCOCC5)c([N+](=O)[O-])c4)c(Oc4cnc5[nH]ccc5c4)c3)CC2)=C(c2ccc(Cl)cc2)C1 [Venetoclax] + C1CN(CCC1(C(=O)N[C@@H](CCO)C2=CC=C(C=C2)Cl)N)C3=NC=NC4=C3C=CN4 [Capivasertib] (first compound max 1 µM, 7x7, partner max 3 µM)",
    "classification": "label 1"
  },
  {
    "compound": "Cc1c2c(nn1C)CSCc1cc(n(C)n1)CSc1cc(c3ccccc3c1)OCCCc1c(C(=O)O)n(C)c3c-2c(Cl)ccc13 [AZD5991] + CN(C)CCCOc1ccc(-c2ccc3ncc4c(c3c2)n(C2CCOCC2)c(=O)n4C)cn1 [AZD0156] (first compound max 1 µM, 7x7, partner max 1 µM)",
    "classification": "label 0"
  },
  {
    "compound": "C[C@@H](Nc1cc(F)cc(F)c1)c1cc(C(=O)N(C)C)cc2c(=O)cc(N3CCOCC3)oc12 [AZD8186] + C1CN(CCC1(C(=O)N[C@@H](CCO)C2=CC=C(C=C2)Cl)N)C3=NC=NC4=C3C=CN4 [AZD5363] (first compound max 10 µM, 7x7, partner max 10 µM)",
    "classification": "label 0"
  }
]

----------
Below is a list of entries, each paired with its recorded combination Emax value.
Tested on: IM-9 (Non-Cancerous)
measurement protocol: combination Emax (second highest fraction inhibited in the dose matrix, 72 h); higher = more inhibition; extreme values may be limits of the assay
experimental endpoint: combination Emax

[
  {
    "compound": "Cc1c2c(nn1C)CSCc1cc(n(C)n1)CSc1cc(c3ccccc3c1)OCCCc1c(C(=O)O)n(C)c3c-2c(Cl)ccc13 [AZD5991] + C=CCn1c(=O)c2cnc(Nc3ccc(N4CCN(C)CC4)cc3)nc2n1-c1cccc(C(C)(C)O)n1 [AZD1775] (first compound max 1 µM, partner max 1 µM)",
    "experimental endpoint": "combination Emax",
    "val": 0.986
  },
  {
    "compound": "COc1cccc(OCCCN)c1-c1cc(Nc2cnc(C#N)cn2)n[nH]1 [Prexasertib] + Cc1cc2ncnn2cc1Nc1ncc2c(n1)n(C1CCOCC1)c(=O)n2C [AZD7648] (first compound max 1 µM, 7x7, partner max 10 µM)",
    "experimental endpoint": "combination Emax",
    "val": 1
  },
  {
    "compound": "Cc1c2c(nn1C)CSCc1cc(n(C)n1)CSc1cc(c3ccccc3c1)OCCCc1c(C(=O)O)n(C)c3c-2c(Cl)ccc13 [AZD5991] + Cn1cnc2c(F)c(Nc3ccc(Br)cc3Cl)c(C(=O)NOCCO)cc21 [Selumetinib] (first compound max 1 µM, 7x7, partner max 3 µM)",
    "experimental endpoint": "combination Emax",
    "val": 0.848
  },
  {
    "compound": "Cc1cc2ncnn2cc1Nc1ncc2c(n1)n(C1CCOCC1)c(=O)n2C [AZD7648] + O=C(c1cc(Cc2n[nH]c(=O)c3ccccc23)ccc1F)N1CCN(C(=O)C2CC2)CC1 [Olaparib] (first compound max 10 µM, 7x7, partner max 10 µM)",
    "experimental endpoint": "combination Emax",
    "val": 0.51
  }
]

----------
Tested on: DU-4475 (Breast Carcinoma)
measurement protocol: Bliss excess, mean over the matrix (fraction); higher = more synergy
experimental endpoint: Bliss excess

[
  {
    "compound": "CC1(C)CCC(CN2CCN(c3ccc(C(=O)NS(=O)(=O)c4ccc(NCC5CCOCC5)c([N+](=O)[O-])c4)c(Oc4cnc5[nH]ccc5c4)c3)CC2)=C(c2ccc(Cl)cc2)C1 [Venetoclax] + C[C@@H]1COCCN1C2=NC(=NC(=C2)C3(CC3)[S@](=N)(=O)C)C4=C5C=CNC5=NC=C4 [AZD6738] (first compound max 1 µM, 7x7, partner max 10 µM)",
    "system tested": "DU-4475 (Breast Carcinoma)",
    "val": 0.0062
  },
  {
    "compound": "CC(=O)Nc1cccc(-n2c(=O)n(C3CC3)c(=O)c3c(Nc4ccc(I)cc4F)n(C)c(=O)c(C)c32)c1 [Trametinib] + Cc1nc(-c2cn3c(n2)-c2ccc(-c4cnn(C(C)(C)C(N)=O)c4)cc2OCC3)n(C(C)C)n1 [Taselisib] (first compound max 1 µM, 7x7, partner max 10 µM)",
    "system tested": "DU-4475 (Breast Carcinoma)",
    "val": 0.0664
  },
  {
    "compound": "NC1(C(=O)N[C@@H](CCO)c2ccc(Cl)cc2)CCN(c2ncnc3[nH]ccc23)CC1 [Capivasertib] + C[C@@H]1COCCN1C2=NC(=NC(=C2)C3(CC3)[S@](=N)(=O)C)C4=C5C=CNC5=NC=C4 [AZD6738] (first compound max 10 µM, 7x7, partner max 10 µM)",
    "system tested": "DU-4475 (Breast Carcinoma)",
    "val": 0.0226
  },
  {
    "compound": "C[C@@H](c1ccc2nccn2c1)n1nnc2ncc(-c3cnn(C)c3)nc21 [Savolitinib] + Cc1c2c(nn1C)CSCc1cc(n(C)n1)CSc1cc(c3ccccc3c1)OCCCc1c(C(=O)O)n(C)c3c-2c(Cl)ccc13 [AZD5991] (first compound max 1 µM, 7x7, partner max 1 µM)",
    "system tested": "DU-4475 (Breast Carcinoma)",
    "val": 0.007
  }
]

----------
Tested on: huH-1 (Hepatocellular Carcinoma)
measurement protocol: combination Emax (second highest fraction inhibited in the dose matrix, 72 h); higher = more inhibition; extreme values may be limits of the assay

[
  {
    "compound": "NC1(C(=O)N[C@@H](CCO)c2ccc(Cl)cc2)CCN(c2ncnc3[nH]ccc23)CC1 [Capivasertib] + Cn1cnc2c(F)c(Nc3ccc(Br)cc3Cl)c(C(=O)NOCCO)cc21 [Selumetinib] (first compound max 10 µM, 7x7, partner max 10 µM)",
    "combination Emax": 0.464
  },
  {
    "compound": "CN(CCO)CC[C@H](CSc1ccccc1)Nc1ccc(S(=O)(=O)NC(=O)c2ccc(N3CCC([C@@H](O)c4ccccc4-c4ccc(Cl)cc4)CC3)cc2)cc1S(=O)(=O)C(F)(F)F [AZD4320] + C[C@@H]1COCCN1C2=NC(=NC(=C2)C3(CC3)[S@](=N)(=O)C)C4=C5C=CNC5=NC=C4 [AZD6738] (first compound max 1 µM, 7x7, partner max 10 µM)",
    "combination Emax": 0.823
  },
  {
    "compound": "Cn1cnc2c(F)c(Nc3ccc(Br)cc3Cl)c(C(=O)NOCCO)cc21 [Selumetinib] + C=CCn1c(=O)c2cnc(Nc3ccc(N4CCN(C)CC4)cc3)nc2n1-c1cccc(C(C)(C)O)n1 [AZD1775] (first compound max 10 µM, partner max 1 µM)",
    "combination Emax": 0.48
  }
]

----------
Below is a list of entries, each paired with its recorded Bliss excess value.
System: PEO1 (Ovarian Carcinoma)
measurement protocol: Bliss excess, mean over the matrix (fraction); higher = more synergy
experimental endpoint: Bliss excess

[
  {
    "molecule": "Cc1c2c(nn1C)CSCc1cc(n(C)n1)CSc1cc(c3ccccc3c1)OCCCc1c(C(=O)O)n(C)c3c-2c(Cl)ccc13 [AZD5991] + C[C@@H](Nc1cc(F)cc(F)c1)c1cc(C(=O)N(C)C)cc2c(=O)cc(N3CCOCC3)oc12 [AZD8186] (first compound max 1 µM, 7x7, partner max 3 µM)",
    "val": -0.008
  },
  {
    "molecule": "CN(C)CCCOc1ccc(-c2ccc3ncc4c(c3c2)n(C2CCOCC2)c(=O)n4C)cn1 [AZD0156] + C[C@@H]1COCCN1C2=NC(=NC(=C2)C3(CC3)[S@](=N)(=O)C)C4=C5C=CNC5=NC=C4 [AZD6738] (first compound max 1 µM, 7x7, partner max 10 µM)",
    "val": -0.0327
  },
  {
    "molecule": "O=C(c1cc(Cc2n[nH]c(=O)c3ccccc23)ccc1F)N1CCN(C(=O)C2CC2)CC1 [Olaparib] + Cc1c2c(nn1C)CSCc1cc(n(C)n1)CSc1cc(c3ccccc3c1)OCCCc1c(C(=O)O)n(C)c3c-2c(Cl)ccc13 [AZD5991] (first compound max 10 µM, 7x7, partner max 1 µM)",
    "val": -0.069
  },
  {
    "molecule": "Cc1nc(Nc2ncc(C(=O)Nc3c(C)cccc3Cl)s2)cc(N2CCN(CCO)CC2)n1 [Dasatinib] + CC(=O)Nc1cccc(-n2c(=O)n(C3CC3)c(=O)c3c(Nc4ccc(I)cc4F)n(C)c(=O)c(C)c32)c1 [Trametinib] (first compound max 2 µM, 7x7, partner max 1 µM)",
    "val": -0.0433
  }
]

This collection of values is drawn from the supplement of paper PMC11061612.
